TESTED TARGET: ANO6 (TMEM16F) (Homo sapiens)
TEST PROTOCOL: Whole-cell patch clamp of ANO6 currents in HEK 293T-ANO6 cells

{"MOLECULE": "O=C(NCc1ccc(F)cc1)c1cccc(Nc2ccc(-c3ccccc3)nn2)c1 [A6-001]", "TESTED TARGET": "ANO6 (TMEM16F) (Homo sapiens)", "UNITS SYMBOL": "nM", "IC50": 70}

---

Tested on: SARS-CoV-2
TEST PROTOCOL: Viral replication of authentic SARS-CoV-2 in Calu-3 cells
Type: cell-based
CONDITIONS USED: Severe acute respiratory syndrome coronavirus 2, Calu-3, 48 h, read-out: IC50, viral replication
pIC50: −log10 of the molar value.

{"COMPOUND SMILES": "O=C(NCc1ccc(F)cc1)c1cccc(Nc2ccc(-c3ccccc3)nn2)c1", "pIC50": 6.01}

---

TESTED TARGET: human ANO6 (Homo sapiens, UniProt Q4KMQ2)
Sequence (Q4KMQ2 1-931 isoform Q4KMQ2-2): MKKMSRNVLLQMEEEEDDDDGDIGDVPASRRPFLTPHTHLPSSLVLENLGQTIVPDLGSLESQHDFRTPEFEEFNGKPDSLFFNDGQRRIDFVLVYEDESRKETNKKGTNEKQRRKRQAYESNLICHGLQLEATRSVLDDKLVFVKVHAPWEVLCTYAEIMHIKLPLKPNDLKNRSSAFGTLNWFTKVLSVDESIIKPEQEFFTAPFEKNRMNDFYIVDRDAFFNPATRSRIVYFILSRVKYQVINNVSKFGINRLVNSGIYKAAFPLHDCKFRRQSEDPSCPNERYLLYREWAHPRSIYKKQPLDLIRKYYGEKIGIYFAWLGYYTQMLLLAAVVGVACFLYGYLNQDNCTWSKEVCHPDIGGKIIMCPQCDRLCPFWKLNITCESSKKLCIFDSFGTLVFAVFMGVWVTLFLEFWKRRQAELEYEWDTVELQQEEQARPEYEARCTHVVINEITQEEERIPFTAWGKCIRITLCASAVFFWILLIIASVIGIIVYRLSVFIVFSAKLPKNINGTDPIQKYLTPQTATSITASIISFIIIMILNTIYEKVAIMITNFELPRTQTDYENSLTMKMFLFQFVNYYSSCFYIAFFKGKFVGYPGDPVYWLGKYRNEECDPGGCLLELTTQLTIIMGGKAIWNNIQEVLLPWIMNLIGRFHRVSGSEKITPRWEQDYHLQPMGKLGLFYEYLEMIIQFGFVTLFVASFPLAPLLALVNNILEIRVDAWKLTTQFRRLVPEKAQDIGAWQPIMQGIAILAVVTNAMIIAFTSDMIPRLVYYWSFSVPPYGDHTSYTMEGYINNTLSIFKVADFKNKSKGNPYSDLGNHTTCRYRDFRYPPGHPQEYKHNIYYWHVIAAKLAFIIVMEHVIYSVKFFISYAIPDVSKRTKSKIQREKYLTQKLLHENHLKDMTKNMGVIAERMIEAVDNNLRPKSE
TEST PROTOCOL: YFP fluorescence quenching-based anion channel assay, FRT-ANO6 cells
CONDITIONS USED: half-maximal inhibitory concentration [IC50], ANO6 ion channel, FRT-ANO6 cells; 10 μM ionomycin
pIC50: −log10 of the molar value.

{"COMPOUND SMILES": "O=C(NCc1ccc(F)cc1)c1cccc(Nc2ccc(-c3ccccc3)nn2)c1", "pIC50": 7.05}

From: paper PMC9250890
